# maps each entry to its Tm
experimental protocol: melting temperature; fluorescence melt of hairpins on a sequencing array, two-state fit, raised by 9.35 °C to match UV melts
test context: sodium 0.088 M
Answer format: number, then unit.

// known answers, use as guide
# sequence chain, Tm
measured = [
    ("GCCTCGCGAAAGCGTCGC ((..(((....)))..))", "43.1 °C"),
    ("GCTCAAGGAAACTTGAGC (((((((....)))))))", "64.4 °C"),
    ("GGGCGCGAAAGCGGACCC ((((((....)))..)))", "61.5 °C"),
]

query: Please look up its Tm: GCTGGCGAAAGCCAAGC ((((((....))).)))
result: 66.5 °C

query: Please look up its Tm: GCGAGACGAAAGTCCCGC (((.(((....))).)))
result: 59 °C

query: Please look up its Tm: GGCCTTCGAAAGAATGCC (((.(((....))).)))
result: 48.3 °C

query: Please look up its Tm: GCTAAACGAAAGTTAGC (((.(((....))))))
result: 48.3 °C

query: Please look up its Tm: GATGAGCGAAAGCTAATC (((.(((....))).)))
result: 46.6 °C

query: Please look up its Tm: GTGTAGGGAAACCTATGC (..((((....))))..)
result: 30.9 °C

query: Please look up its Tm: GCGAGGTGTCGC ((((....))))
result: 65.7 °C

query: Please look up its Tm: GATCAGCTAACTGATC ((((((....))))))
result: 49.7 °C

Origin of measurements: the array DNA melting data of Ke et al. (doi:10.1101/2024.01.08.574731)
